I'd appreciate it if you could supply %Inh values for the items below.
system: MTOR; conditions: concentration: 1 μM, replicates: in singlicate; n = 1;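 also: KINOMEscan kinase panel screen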

Compound string: Nc1nc(-c2ccccc2F)c(-c2ccnc3ccccc23)s1
Assay result: 21%

Dear colleague, could you send me %Inh for each of the items below? Thanks.
1. CN1C(=O)C(Nc2cc(Cl)c(O)c(Cl)c2)=C(c2ccc(Cl)cc2)C1=O
2. CCC(=O)c1c(-c2ccccc2)c2cc(Cl)ccc2c(=O)n1Cc1cc(S(C)(=O)=O)n(CC(F)F)n1

-- reply
["2%", "7%"]

###

test system: YSK1; construct: gene STK25; details: concentration: 1 μM, replicates: in singlicate; n = 1
Endpoint name: %Inh (%)
One number for each entry, in %.

Check out these entries, answers already filled in.
Compound: O=C(NCc1cccs1)c1cc(C(=O)c2c(Cl)cccc2Cl)c[nH]1 [GW823670]
Readout unit: %
Assay result: 11
//
Compound: COc1cc(Nc2ccnc3ccc(C(F)(F)F)cc23)cc(OC)c1OC [GW577382]
Readout unit: %
Assay result: 1

Let us move to another entry and its %Inh.
-- ask Find the recorded %Inh belonging to O=c1cc(N2CCOCC2)nc2n(Cc3ccc(F)c(Cl)c3)ccn12 [GSK2297099] and report it.
-- reply 18

###

For each record, write down the corresponding %Inh.
test system: CHEK2; conditions: concentration: 1 μM, replicates: in singlicate; n = 1
One number for each entry, in %.

Molecule: Nc1n[nH]c2nnc(-c3ccccc3)c(-c3ccccc3)c12 [GW554060]
Endpoint name: %Inh
Readout unit: %
Assay result: 0
--
Molecule: O=C(Nc1n[nH]c2cc(-c3ccccc3F)ccc12)C1CC1 [SB-733371]
Endpoint name: %Inh
Readout unit: %
Assay result: 13
--
Molecule: O=C(Nc1n[nH]c2nc(-c3ccccc3)c(Cl)cc12)C1CC1 [SB-734909]
Endpoint name: %Inh
Readout unit: %
Assay result: 22
--
Molecule: Cc1cccc(-c2nc(Nc3ccc4c(cnn4C)c3)c3ccccc3n2)n1 [GW876731]
Endpoint name: %Inh
Readout unit: %
Assay result: 0

Need %Inh for each of these molecules.
1. COc1cc2ncn(-c3cc(OCc4ccncc4)c(C(N)=O)s3)c2cc1OC [GSK336313]
2. Cc1nc(N(C)[C@H]2CN(C(=O)CC#N)CC[C@H]2C)c2cc[nH]c2n1
3. OCCCNc1nccc(-c2c(-c3cccc(C(F)(F)F)c3)nn3cc(C(F)(F)F)ccc23)n1 [GW630813]

-- reply
1: 0; 2: 0; 3: 1

-- ask So what %Inh did CCS(=O)c1ccc(-c2coc3ccc(-c4nnc(C)o4)cc23)cc1 (centres unmarked) get with CHEK2?
-- reply 0

###

system: RSK2(Kin.Dom.2-C-terminal); construct: gene RPS6KA3; conditions: concentration: 1 μM, replicates: in singlicate; n = 1
For each entry below, report its %Inh value.
Put your answer as a value accompanied by its unit after it.

Guide cases for %Inh, answers given:
Compound string: Nc1n[nH]c2ncc(-c3ccccc3)cc12
%Inh: 0%
--
Compound string: Cc1c(Cn2c(C)nn3c(=O)cc(N4CCO[C@H](C)C4)nc23)cccc1C(F)(F)F
%Inh: 0%
--
Compound string: Nc1nc(N)c2nc(-c3ccccc3)[nH]c2n1
%Inh: 9%
--
Compound string: CCc1nc(-c2cccc(C)c2)c(-c2ccncc2)s1
%Inh: 0%
--
Compound string: COC(=O)c1c(-c2ccccc2)c2cc(Br)ccc2c(=O)n1Cc1ccc(NC(=O)CCC(=O)O)cc1
%Inh: 29%
--
Compound string: COC(=O)c1c(-c2ccccc2)c2cc(Br)ccc2c(=O)n1Cc1ccc(S(C)(=O)=O)cc1
%Inh: 9%

Here's the next entry for you.
-- ask Item under review: COc1cc(OC)cc(-c2cc3cnc(N)nc3nc2NC(=O)NC(C)(C)C)c1 . Reported %Inh?
-- reply 0%
